Please go through the items and note down their PBM binding z-score.
system: LXRb:RXRa (NR concentration 270 nM, RXRa partner concentration 90 nM); assay: PBM binding z-score (relative to random genomic background probes); higher = stronger binding; sequences stand for … in GC…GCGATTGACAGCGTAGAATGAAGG
One number for each entry.

A selection of reference data follows.
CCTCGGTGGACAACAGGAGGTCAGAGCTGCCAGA	1.05
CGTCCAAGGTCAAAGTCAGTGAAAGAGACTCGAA	4.03
TCATATAGGTAAACAGGTGCAAGTCCGTAAGTTA	1.02

List the reported PBM binding z-score of each sequence below.
1. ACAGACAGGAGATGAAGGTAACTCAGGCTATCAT
2. AATACACGGTCATCGTAGGCCAGAGTACGCACAG
3. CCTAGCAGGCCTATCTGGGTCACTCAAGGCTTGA
4. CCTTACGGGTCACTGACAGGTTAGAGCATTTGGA
5. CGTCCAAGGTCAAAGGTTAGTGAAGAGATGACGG
6. ACAATGAGGTTAAGATCAGGGAAACAGAATACAT
7. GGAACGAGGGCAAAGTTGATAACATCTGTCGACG
8. GCGACTGGGGCAAAGCAAGTTACCATAAGGTTGG

Solution:
[0.229, 0.586, 0.838, 3.04, 5.09, 1.85, 1.12, -0.3]

====

Task for the reader: assign each of the following sequences its reported PBM binding z-score.
tested on: PPARg:RXRa 90nM:30nM, anti-RXR (NR concentration 90 nM, RXRa partner concentration 30 nM); assay: PBM binding z-score (relative to random genomic background probes); higher = stronger binding; sequences stand for … in GC…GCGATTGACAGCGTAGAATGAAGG

For orientation, consider the following solved cases.
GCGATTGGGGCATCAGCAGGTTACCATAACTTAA	-0.582
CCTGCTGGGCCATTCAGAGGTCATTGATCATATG	1.15
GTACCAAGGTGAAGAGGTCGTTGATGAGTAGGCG	1.72
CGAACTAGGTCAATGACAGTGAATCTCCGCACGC	5.2
AATACAGAGTCACTAGGCCAGAGTAGGTACGAAT	0.718
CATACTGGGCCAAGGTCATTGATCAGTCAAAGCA	3.8

Record PBM binding z-score for all entries; do not skip any.
1. GCTAGCCGGCCATTTGGGTCACTCAATGACGGGC
2. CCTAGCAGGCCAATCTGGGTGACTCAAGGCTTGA
3. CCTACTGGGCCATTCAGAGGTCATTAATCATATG
4. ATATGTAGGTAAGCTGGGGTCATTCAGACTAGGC
5. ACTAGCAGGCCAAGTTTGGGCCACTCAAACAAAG
6. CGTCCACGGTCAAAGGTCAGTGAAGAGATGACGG

Solution:
1: -0.159; 2: -0.00968; 3: 2.02; 4: 3.77; 5: -0.814; 6: 7.93

====

tested on: PXR:RXRa (NR concentration 270 nM, RXRa partner concentration 90 nM); assay: PBM binding z-score (relative to random genomic background probes); higher = stronger binding; sequences stand for … in GC…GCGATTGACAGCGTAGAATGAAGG
Recorded PBM binding z-score determines the label; the label ranges are label 0 (below 0.4), label 1 (0.4 to below 3), label 2 (3 or more)

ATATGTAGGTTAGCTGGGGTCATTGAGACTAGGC	label 2
AGTCAAAGCTCAGGACGAGGTAACGTAAAGCACG	label 0
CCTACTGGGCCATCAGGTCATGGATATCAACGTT	label 1
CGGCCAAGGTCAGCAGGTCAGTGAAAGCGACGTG	label 2
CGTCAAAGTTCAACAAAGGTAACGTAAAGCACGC	label 2

Exercise: The entry to classify is `CCTAGTTGGTCACGGTCACACACGCTATAGGTAC` ; which class holds it?
Solution: label 1

Exercise: For `GGAACGAGGGCATTTGAGTTGATAGCATGGCGAT` , which PBM binding z-score bin applies?
Solution: label 2

Exercise: Categorize the following entry: `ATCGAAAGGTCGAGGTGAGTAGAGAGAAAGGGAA`
Solution: label 1

Exercise: Tag the class for `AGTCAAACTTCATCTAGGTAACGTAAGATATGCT`
Solution: label 0

Exercise: Band for `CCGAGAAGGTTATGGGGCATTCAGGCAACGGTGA` ?
Solution: label 1

Exercise: Which PBM binding z-score band matches `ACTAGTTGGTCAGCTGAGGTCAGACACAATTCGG` ?
Solution: label 2

Exercise: Sort into band: `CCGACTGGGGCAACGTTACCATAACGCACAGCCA`
Solution: label 0

Exercise: Form field 'band' for `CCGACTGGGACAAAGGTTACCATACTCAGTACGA`
Solution: label 1

Data provenance is the supplement of paper PMC6555819.
